# study-system: c-Cbl (Homo sapiens (Human), UniProt P22681)
# Sequence (P22681 47-435): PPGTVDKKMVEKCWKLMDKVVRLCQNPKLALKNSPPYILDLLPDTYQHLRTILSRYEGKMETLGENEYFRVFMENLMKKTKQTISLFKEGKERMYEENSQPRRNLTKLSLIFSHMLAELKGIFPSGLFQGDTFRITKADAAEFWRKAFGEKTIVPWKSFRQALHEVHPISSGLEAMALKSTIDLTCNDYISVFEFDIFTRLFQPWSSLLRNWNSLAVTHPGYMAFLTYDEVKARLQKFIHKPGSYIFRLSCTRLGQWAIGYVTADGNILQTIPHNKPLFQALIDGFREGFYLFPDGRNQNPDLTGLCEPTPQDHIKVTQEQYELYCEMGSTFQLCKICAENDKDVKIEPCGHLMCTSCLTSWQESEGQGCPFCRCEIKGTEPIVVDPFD
# protocol-details: C-Cbl LCK Ub TR-FRET assay (c-cbl Lck HTRF)
# Type: biochemical
# assay-setup: C-cbl Lck HTRF IC50 relative to Cbl-b Lck HTRF IC50
value-type: (fold-selectivity)

Item CC(C)CNc1cc(C2(Cc3nncn3C)CCC2)cc(N2Cc3c(cc(CNC4(C)CCC4)cc3C(F)(F)F)C2=O)n1 [Compound 348] : provide (fold-selectivity)
(1.0x)

Item CN1CCN(Cc2cc3c(c(C(F)(F)F)c2)CN(c2cccc(C4(Cc5nncn5C)CC(F)(F)C4)c2)C3=O)C(C(F)(F)F)C1 (stereo not drawn) [Compound 374] : provide (fold-selectivity)
(1.0x)

Item Cn1cnnc1CC1(c2cccc(N3Cc4c(cc(CN5CCC6(CC6)C5)cc4C(F)(F)F)C3=O)c2)CC(F)(F)C1 [Compound 106] : provide (fold-selectivity)
0.81x

* * *

Each entry below lists one item and its recorded (fold-selectivity) value.
# study-system: c-Cbl (Homo sapiens (Human))
# protocol-details: C-Cbl LCK Ub TR-FRET assay (c-cbl Lck HTRF)
# Format: biochemical
# assay-setup: C-cbl Lck HTRF IC50 relative to Cbl-b Lck HTRF IC50
# number only, unit x dropped from output

Below: 2 compounds and their reported (fold-selectivity).
Please respond with reported (fold-selectivity) (system c-Cbl (Homo sapiens (Human))) for Cn1cnnc1[C@H](F)C1(c2cccc(N3Cc4c(cc(CN5CCC[C@H]5CO)cc4C(F)(F)F)C3=O)c2)COC1 .
1.0

Please respond with reported (fold-selectivity) (system c-Cbl (Homo sapiens (Human))) for Cn1cnnc1CC1(c2cccc(N3Cc4c(cc(C5CCNC5)cc4C(F)(F)F)C3=O)c2)COC1.O=CO (racemic) .
1.7

As a next step, examine the compound that follows.
Please respond with reported (fold-selectivity) (system c-Cbl (Homo sapiens (Human))) for CC(C)[C@H]1CN(C2COC2)CCN1Cc1cc2c(c(C(F)(F)F)c1)CN(c1cccc(C3([C@H](F)c4nncn4C)COC3)c1)C2=O .
2.9

* * *

# study-system: c-Cbl (Homo sapiens (Human))
# protocol-details: C-Cbl LCK Ub TR-FRET assay (c-cbl Lck HTRF)
# Type: biochemical
# Description: 6 μL of detection mixture was added to all wells and briefly centrifuged before incubating for 20 min at room temperature. […] IC50 was generated using no LCK as the low control and DMSO as the high control.
value-type: pIC50
Note: pIC50 values are expressed as the negative base-10 logarithm of concentration in M.

Please respond with reported pIC50 (system c-Cbl (Homo sapiens (Human))) for CC[C@H](C)Nc1cc(C2(Cc3nncn3C)COC2)cc(N2Cc3c(cccc3C(F)(F)F)C2=O)n1 [Compound 481] .
6.38

Please respond with reported pIC50 (system c-Cbl (Homo sapiens (Human))) for COCC1(NCc2cc3c(c(C(F)(F)F)c2)CN(c2cccc(C4(Cc5nncn5C)CC(F)(F)C4)c2)C3=O)CC1 [Compound 367] .
7.54

Please respond with reported pIC50 (system c-Cbl (Homo sapiens (Human))) for Cn1cnnc1CC1(c2cccc(N3Cc4c(cc(CN5Cc6c[nH]nc6C5)cc4C(F)(F)F)C3=O)c2)CC(F)(F)C1 [Compound 105] .
7.60

Please respond with reported pIC50 (system c-Cbl (Homo sapiens (Human))) for CNCc1cc2c(c(C(F)(F)F)c1)CN(c1cc(C3(Cc4nncn4C)COC3)cc(NC3CCCC3)n1)C2=O [Compound 277] .
6.06

* * *

# study-system: Cbl-b (Homo sapiens (Human), UniProt Q13191)
# Sequence (Q13191 40-426): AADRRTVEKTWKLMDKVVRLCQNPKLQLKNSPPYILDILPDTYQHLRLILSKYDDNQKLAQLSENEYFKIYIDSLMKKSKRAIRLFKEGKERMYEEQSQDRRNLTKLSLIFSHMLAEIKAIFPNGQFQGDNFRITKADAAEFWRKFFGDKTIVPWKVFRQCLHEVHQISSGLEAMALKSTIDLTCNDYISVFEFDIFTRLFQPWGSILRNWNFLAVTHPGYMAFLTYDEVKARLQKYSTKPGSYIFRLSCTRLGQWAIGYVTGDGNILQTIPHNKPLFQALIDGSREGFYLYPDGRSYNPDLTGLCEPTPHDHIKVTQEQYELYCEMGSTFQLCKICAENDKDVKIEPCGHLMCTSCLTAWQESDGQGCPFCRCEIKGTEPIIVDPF
# protocol-details: Cbl-b LCK Ub TR-FRET assay (Cbl-b Lck HTRF)
# Format: biochemical
value-type: pIC50
Note: pIC50 values are expressed as the negative base-10 logarithm of concentration in M.

Below: 3 compounds and their reported pIC50.
Item Cn1cnnc1CC1(c2cc(NC3CC=CC3)nc(N3Cc4c(cccc4C(F)(F)F)C3=O)c2)COC1 : provide pIC50
6.64

Item Cn1cnnc1CC1(c2cc(NCCCN3CCOCC3)nc(N3Cc4c(cc(CNC5(C)CCC5)cc4C(F)(F)F)C3=O)c2)CCC1 : provide pIC50
6.51

Item CC(C)CNCc1cc2c(c(C(F)(F)F)c1)CN(c1cccc(C3([C@H](F)c4nncn4C)CC(F)(F)C3)c1)C2=O : provide pIC50
7.92

As a next step, examine the compound that follows.
Item Cn1cnnc1CC1(c2cc(N[C@H]3CC[C@@H](N)CC3)nc(N3Cc4c(cc(CNC5(C)CCC5)cc4C(F)(F)F)C3=O)c2)CCC1 : provide pIC50
7.12

* * *

# study-system: Cbl-b (Homo sapiens (Human), UniProt Q13191)
# protocol-details: Cbl-b LCK Ub TR-FRET assay (Cbl-b Lck HTRF)
# Assay type: biochemical
pIC50: −log10 of the molar value.
Tag: Yes if measured pIC50 is not below 7, No if it is.

Take a look at these entries with their results.
Has Cn1cnnc1CC1(c2cccc(N3Cc4c(cc(C5CNC5)cc4C(F)(F)F)C3=O)c2)COC1 [Compound 12] a recorded pIC50 greater than or equal to 7?
No

Has CC(C)[C@H]1CN(C)CCN1Cc1cc2c(c(C(F)(F)F)c1)CN(c1cccc(C3([C@H](F)c4nncn4C(F)F)COC3)c1)C2=O [Compound 268] a recorded pIC50 greater than or equal to 7?
Yes

Others:
Has Cn1cnnc1CC1(c2cccc(N3Cc4c(cc(CNC5(C)CCC5)cc4C(F)F)C3=O)c2)CC(F)(F)C1 [Compound 250] a recorded pIC50 greater than or equal to 7?
Yes

Has CCNc1cc(N2Cc3c(cc(CNC4(C)CCC4)cc3C(F)(F)F)C2=O)cc(C2(Cc3nncn3C)COC2)c1 [Compound 474] a recorded pIC50 greater than or equal to 7?
Yes

Has Cn1cnnc1C(F)(F)C1(c2cccc(N3Cc4c(cccc4C(F)(F)F)C3=O)c2)CC(F)(F)C1 [Compound 253] a recorded pIC50 greater than or equal to 7?
No

Has Cn1cnnc1CC1(c2cccc(N3Cc4c(cc(CNCC(C)(C)C)cc4C(F)(F)F)C3=O)c2)CC(F)(F)C1 [Compound 363] a recorded pIC50 greater than or equal to 7?
Yes

Has Cn1cnnc1CC1(c2cc(NCC3CCS(=O)(=O)CC3)nc(N3Cc4c(cc(CNC5(C)CCC5)cc4C(F)(F)F)C3=O)c2)CCC1 [Compound 315] a recorded pIC50 greater than or equal to 7?
No

* * *

# protocol-details: In vivo pharmacokinetics, mouse
# Set-up: species or system CD-1 mice
# assay-setup: male, CD-1, plasma, single intravenous bolus 0.2-1 mg/kg, read-out: Mouse CL
Each entry below lists one item and its recorded clearance value.
# number only, unit mL/min/kg dropped from output

Item CC(C)[C@H]1CN(C)CCN1Cc1cc2c(c(C(F)(F)F)c1)CN(c1cccc(C3([C@@H](F)c4nncn4C)CC(F)(F)C3)c1)C2=O : provide clearance
34

Item CC(C)[C@H]1CN(C)CCN1Cc1cc2c(c(C(F)(F)F)c1)CN(c1cccc(C3([C@@H](F)c4nncn4C)COC3)c1)C2=O : provide clearance
42

Item Cn1cnnc1[C@H](F)C1(c2cccc(N3Cc4c(cc(CN5CCC5)cc4C(F)(F)F)C3=O)c2)COC1 : provide clearance
44

Others:
Item Cn1cnnc1[C@H](F)C1(c2cccc(N3Cc4c(cc(CN5CC6CC5C6)cc4C(F)(F)F)C3=O)c2)COC1 : provide clearance
40

* * *

# study-system: UniProt:P22681
# protocol-details: C-Cbl LCK Ub TR-FRET assay (c-cbl Lck HTRF)
# Assay type: biochemical
Each entry below lists one item and its recorded IC50 value.

Please respond with reported IC50 (system UniProt:P22681) for CCNCc1cc2c(c(C(F)(F)F)c1)CN(c1cccc(C3([C@@H](F)c4nncn4C)COC3)c1)C2=O .
61 nM

* * *

# study-system: UniProt:Q13191
# protocol-details: Cbl-b LCK Ub TR-FRET assay (Cbl-b Lck HTRF)
# Format: biochemical
value-type: log10 of IC50 (log10 of the value in nM)
The common logarithm of IC50 in nM is what is listed.

Below: 3 compounds and their reported log10 of IC50.
Item Cn1cnnc1[C@H](F)C1(c2cccc(N3Cc4c(cc(CN5CC(C(F)F)C5)cc4C(F)(F)F)C3=O)c2)COC1 : provide log10 of IC50
1.46

Item CC(C)NCc1cc2c(c(C(F)(F)F)c1)CN(c1cccc(C3([C@H](F)c4nncn4C)CC(F)(F)C3)c1)C2=O : provide log10 of IC50
1.51

Item CCCNCc1cc2c(c(C(F)(F)F)c1)CN(c1cccc(C3([C@H](F)c4nncn4C)CC(F)(F)C3)c1)C2=O : provide log10 of IC50
1.41

Others:
Item Cn1cnnc1CC(F)(F)c1cccc(N2Cc3c(cccc3C(F)(F)F)C2=O)c1 : provide log10 of IC50
3.54

Item CC(C)[C@H]1CN(CCF)CCN1Cc1cc2c(c(C(F)(F)F)c1)CN(c1cccc(C3([C@@H](F)c4nncn4C)COC3)c1)C2=O : provide log10 of IC50
0.90

Item Cn1cnnc1CC1(c2cc(NCC3CC3)nc(N3Cc4c(cc(CNC5(C)CCC5)cc4C(F)(F)F)C3=O)c2)CCC1 : provide log10 of IC50
1.04
